Listed below: protein stability index values for each entry.
B1: DCAF4 (parent)
chain: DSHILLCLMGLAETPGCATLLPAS

# Variants of: B1
# test.protocol: protein stability index of a GFP-peptide fusion (GPS, HEK-293T) (PSI 1-6); higher = more stable;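 further: lentivirally expressed fusions sorted by FACS into six bins by GFP to DsRed ratio, PSI derived from sequencing read proportions per bin multiplied by bin number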
# condition: c terminus: a fixed tail appended
assay.metric: protein stability index

| mutant.code | recorded.value |
| --- | --- |
| D1A | 2.99 |
| C7I | 2.51 |
| C7N | 2.08 |
| L8C | 2.39 |
| A23P | 1.79 |
| T19P | 2.5 |
| G16I | 2.9 |
| C17M | 2.38 |
| A12K | 1.92 |
| C7Y | 3 |
| M9R | 1.82 |
| S24P | 2.36 |
| L20H | 2.36 |
| P15N | 1.35 |
| L8G | 1.93 |
| A23G | 2.37 |
| L5Q | 2.27 |
| E13L | 2.42 |
| T19E | 3.24 |
| S2M | 2.31 |
| E13M | 3.96 |
| P15W | 2.46 |
| A12C | 2.96 |
| S2D | 2.64 |
| S2E | 2.48 |
| M9C | 1.71 |
| L5P | 3.06 |
| A18S | 1.6 |
| L20T | 2.07 |
| G10Q | 2.23 |
| L20V | 2.36 |
| L21W | 2.8 |
| A12N | 1.69 |
| A23F | 3.27 |
| A18T | 2.3 |
| A18N | 2.07 |
| L11Q | 1.66 |
| I4N | 1.93 |
| I4Q | 2.13 |
| T19R | 1.64 |
| L6C | 3.71 |
| G10Y | 2.37 |
| P15K | 1.78 |
| L11C | 2.76 |
| P15R | 2.66 |
| L5W | 2.79 |
| E13A | 3.31 |
| L21P | 2.25 |
| C17G | 3.08 |
| L6Y | 2.86 |
| G10C | 3.17 |
| L11K | 1.71 |
| G10S | 3.06 |
| L20F | 3.14 |
| A12S | 2.37 |
| A12P | 3.88 |
| A18D | 2.39 |
| D1M | 2.4 |
| A12M | 2.66 |
| A18E | 2.31 |
| G16K | 1.38 |
| G10H | 3.23 |
| A18V | 1.92 |
| T19M | 3.1 |
| D1I | 2.64 |
| G10M | 2.95 |
| S2T | 2.09 |
| D1Y | 1.7 |
| C17W | 2.44 |
| T14S | 2.47 |
| C17K | 1.83 |
| A23Y | 1.75 |
| G10F | 2.99 |
| A18C | 4.64 |
| D1S | 3.75 |
